assay: Inverse agonist activity at human cytomegalovirus US28 receptor transfected in HEK293T cells assessed as activation of MAPK signaling pathway at 10 uM after 20 to 24 hrs by luciferase-based Elk1 reporter gene assay relative to control; type: cell-based; details: Human betaherpesvirus 5, HEK-293T
Each entry gets F if its Efficacy stays under -40%, and T if its Efficacy is -40% or above.

Reference set, count: 5
                            chemical_smiles  assigned_class
0        COc1ccc(Cl)cc1-c1oc2ccccc2c(=O)c1O               F
1  COc1ccc(Br)cc1-c1cc(=O)c2c(OCc3ccccc3)cccc2o1               F
2     COc1ccc(Br)cc1/C=C/C(=O)c1c(O)cccc1OC               F
3         COc1ccc(C)cc1-c1oc2ccccc2c(=O)c1O               T
4   COc1ccc(Br)cc1/C=C/C(=O)c1ccc2ccccc2c1O               F

INPUT: Say whether COc1cc(OC)c(/C=C/C(=O)c2ccccc2O)cc1Br shows Efficacy of -40% or more.
OUTPUT: F

INPUT: Identify whether the reported Efficacy of the following compound is -40% or greater: COc1cc(Br)cc(/C=C/C(=O)c2ccccc2O)c1OC
OUTPUT: F

INPUT: Check if Efficacy >= -40% (inclusive). Item: COc1ccc(Br)cc1/C=C/C(=O)c1ccccc1O
OUTPUT: F

INPUT: Check the entry COc1ccc(C)cc1/C=C/C(=O)c1ccccc1O : does Efficacy equal or exceed -40%?
OUTPUT: T

INPUT: Determine whether measured Efficacy meets or exceeds -40% for COc1ccccc1-c1oc2ccccc2c(=O)c1O
OUTPUT: T

INPUT: Is it the case that COc1ccccc1/C=C/C(=O)c1ccccc1O has Efficacy reaching or exceeding -40%?
OUTPUT: T

* * *

assay: Inverse agonist activity at human cytomegalovirus US28 receptor transfected in HEK293T cells assessed as activation of MAPK signaling pathway after 20 to 24 hrs by luciferase-based Elk1 reporter gene assay; assay type: cell-based, Human betaherpesvirus 5, HEK-293T; conditions: Human betaherpesvirus 5, HEK-293T; read-out: pEC50 (converted)
Measured log10(EC50) of individual entries
Give log10 of EC50, with EC50 taken in µM.

Past entries and their recorded results:
In [3]: df
Out[3]:
                            chemical_smiles  value_reported
0  COc1ccccc1-c1cc(=O)c2c(OCc3ccccc3)cccc2o1            0.86
1            COc1ccccc1-c1oc2ccccc2c(=O)c1O            0.66
2     COc1cc(Br)cc(/C=C/C(=O)c2ccccc2O)c1OC            0.82
3     COc1ccc(Br)cc1/C=C/C(=O)c1c(O)cccc1OC            0.78
4   COc1ccc(Br)cc1/C=C/C(=O)c1ccc2ccccc2c1O            0.46

Here's the next entry for you.
INPUT: What value of log10(EC50) has been recorded for this entry: CCOc1ccc(Cl)cc1-c1oc2ccccc2c(=O)c1O
OUTPUT: -0.51

* * *

assay: Inverse agonist activity at human cytomegalovirus US28 receptor transfected in HEK293T cells assessed as activation of MAPK signaling pathway after 20 to 24 hrs by luciferase-based Elk1 reporter gene assay; assay type: cell-based, Human betaherpesvirus 5, HEK-293T; details: Human betaherpesvirus 5, HEK-293T; read-out: pEC50 (converted)
Kindly apply the following: YES if EC50 is less than 6 µM, NO in every other case.

Before answering, review these 5 worked examples.
>>> df
                      chemical_smiles  assigned_class
0       COc1ccccc1/C=C/C(=O)c1ccccc1O             YES
1  CCOc1ccc(Br)cc1/C=C/C(=O)c1ccccc1O             YES
2   COc1ccc(C)cc1-c1oc2ccccc2c(=O)c1O             YES
3   COc1ccc(Br)cc1/C=C/C(=O)c1ccccc1O              NO
4  CCOc1ccc(Cl)cc1/C=C/C(=O)c1ccccc1O              NO

INPUT: Strictly below 6 µM: is that where EC50 of COc1ccc(I)cc1/C=C/C(=O)c1ccccc1O sits?
OUTPUT: YES

INPUT: Please state whether EC50 is below 6 µM for COc1ccc(Cl)cc1/C=C/C(=O)c1ccccc1O
OUTPUT: NO

* * *

test: Inverse agonist activity at human cytomegalovirus US28 receptor transfected in HEK293T cells assessed as activation of MAPK signaling pathway after 20 to 24 hrs by luciferase-based Elk1 reporter gene assay; format: cell-based, Human betaherpesvirus 5, HEK-293T; conditions: Human betaherpesvirus 5, HEK-293T; read-out: pEC50 (converted)
Cut-off 1 µM on EC50: below means rule met, at or above means rule not met.

Example entries begin here.
>>> df
                            chemical_smiles  assigned_class
0         COc1ccc(Br)cc1-c1cc(=O)c2ccccc2o1    rule not met
1       CCOc1ccc(Br)cc1-c1oc2ccccc2c(=O)c1O        rule met
2  COc1ccc(Br)cc1-c1cc(=O)c2c(OCc3ccccc3)cccc2o1    rule not met
3        COc1ccc(Cl)cc1-c1oc2ccccc2c(=O)c1O    rule not met

Pending compound:
INPUT: Lab note: EC50 threshold 1 µM. Does this compound come in strictly under it? COc1cc(OC)c(/C=C/C(=O)c2ccccc2O)cc1Br
OUTPUT: rule not met

* * *

test: Inverse agonist activity at human cytomegalovirus US28 receptor transfected in HEK293T cells assessed as activation of MAPK signaling pathway at 10 uM after 20 to 24 hrs by luciferase-based Elk1 reporter gene assay relative to control; format: cell-based; conditions: Human betaherpesvirus 5, HEK-293T
readout.label: Efficacy (%)
The answer is to be given in %; state only the numeric part.

Study these solved cases before continuing.
In [3]: df
Out[3]:
                            chemical_smiles  readout_label  value_reported
0         COc1ccc(Cl)cc1/C=C/C(=O)c1ccccc1O       Efficacy             -58
1          COc1ccc(I)cc1/C=C/C(=O)c1ccccc1O       Efficacy             -94
2  COc1ccccc1-c1cc(=O)c2c(OCc3ccccc3)cccc2o1       Efficacy             -49
3        CCOc1ccc(Br)cc1/C=C/C(=O)c1ccccc1O       Efficacy             -88
4       CCOc1ccc(Cl)cc1-c1oc2ccccc2c(=O)c1O       Efficacy             -41
5         COc1ccc(Br)cc1-c1cc(=O)c2ccccc2o1       Efficacy             -55

Next, consider the following compound.
INPUT: Which Efficacy is reported for this compound? CCOc1ccc(Cl)cc1/C=C/C(=O)c1ccccc1O
OUTPUT: -76
